- Test system: SR leukemia
- experimental-protocol: NCI-60 one-dose screen, 48 h
- condition-context: 10 µM unless noted
The panel holds about 83,000 compounds, 20% with a hit somewhere; the sample as a whole holds those more often. The source made the active and inactive calls. Rule for the calls: active = growth percent below 10; inactive = the rest.
Classes used: YES for active, NO for inactive

CC(=O)NC(C)(C)C(=O)N1CCC[C@H]1C(=O)NC(C)(C)C(=O)N[C@@H](C)C(=O)NC(C)(C)C(=O)NC(C)(C)C(=O)N[C@@H](CCC(N)=O)C(=O)NC(C)(C)C(=O)N[C@H](C(=O)NC(C)(C)C(=O)NCC(=O)N[C@@H](CC(C)C)C(=O)NC(C)(C)C(=O)N1CCC[C@H]1C(=O)N[C@H](C(=O)NC(C)(C)C(=O)NC(C)(C)C(=O)N[C@@H](CCC(N)=O)C(=O)N[C@@H](CCC(N)=O)C(=O)N[C@H](CO)Cc1ccccc1)C(C)C)C(C)C | NO
Oc1ccc(CSc2nnc(-c3ccc(Cl)cc3)o2)c2cccnc12 | NO
C/C(=C(/c1ccc(O)cc1)c1ccc(OCCN2CCCCCC2)cc1)c1ccccc1 | YES
CCC(CC)N1C(=O)/C(=c2\sc3n(c2=O)C2C(NN=3)N(CC)C(=O)N2CC)c2ccccc21 (stereo unspecified) | YES
IP(CCCCCCCCCCSc1n(Cc2ccc3ccccc3c2)c(-c2ccccc2)c(-c2ccccc2)[n+]1Cc1ccc2ccccc2c1)(c1ccccc1)(c1ccccc1)c1ccccc1 | YES
CCNC(=O)Oc1ccc(/C(=C(/C)c2ccccc2)c2ccc(OCCN3CCCC3)cc2)cc1 | NO
CCOC(=O)c1c(NCC(=O)Nc2ccc(Br)cc2)sc2c1CCCC2 | NO
O=C1NC(=O)c2c1c1c3ccccc3ccc1c1[nH]c3ccccc3c21 | YES
CCc1ccc(NC(=O)N[C@@H](Cc2cccc(F)c2)C(=O)N[C@@H]2C(=O)N3CCC[C@H]3C(=O)N3CCCC[C@H]3C(=O)N[C@@H](C)C(=O)N3C[C@H](C)C[C@H]3C(=O)O[C@H]2C)c(F)c1 | NO
Cc1cc(NS(=O)(=O)c2ccc(-c3cnc(C4CC4)o3)cc2)ccc1I | NO
CC1CCc2c(sc3nc(SCC(=O)N/N=C/c4cccc(O)c4O)n(-c4ccccc4)c(=O)c23)C1 (stereo unspecified) | NO
O=C(NCCNc1cc(-c2cn(-c3ccccc3)nc2-c2cccc(O)c2)ccn1)Nc1ccc(Cl)c(C(F)(F)F)c1 | NO
CNC(=O)c1cc(Oc2ccc3nc(NC(=O)c4ccc(CN5CCN(C)CC5)c(C(F)(F)F)c4)sc3c2)ccn1 | YES
COc1ccc(CCN2C(=O)/C(=C/c3nc(CO)cs3)SC2=S)cc1 | NO
CC(C)=CCC[C@](C)(O)[C@H]1CC[C@]2(C)[C@@H]1CC[C@@H]1[C@@]3(C)CCC(NC(=O)c4ccccc4C(=O)O)C(C)(C)[C@@H]3CC[C@]12C (stereo partly specified) | NO
Cn1c(SC(C(=O)Nc2ccc(F)cc2)c2ccccc2)nc2ccccc2c1=O (stereo unspecified) | NO
O=C(NNc1nc2cc(F)cc(F)c2n2cccc12)c1ccncn1 | YES
CCN(CC)CCN1C(=O)c2c(c3c4cc(Br)ccc4[nH]c3c3ccc4ccccc4c23)C1=O | YES
C(=C(\C1=NCCN1)n1cnc2ccccc21)/c1ccc2ccccc2c1 | NO
O=c1c2c(O)cccc2oc2c3c(cc(O)c12)O[C@H]1OC=C[C@@H]31 | NO
O=C(c1ccc(O)cc1)[C@@H]1[C@@H]2CCCN2[C@@]2(C(=O)N(C(=O)c3ccc(F)cc3)c3ccccc32)[C@H]1c1ccc(F)cc1 | NO
C#C[C@]1(O)CC[C@H]2[C@@H]3CC=C4c5sc(Nc6cc(Cl)ccn6)nc5CC[C@]4(C)[C@H]3CC[C@@]21C | YES
Cc1[nH]nc2ccc(-c3nc4cnc(N5CCN(C)CC5)cn4c3Nc3ccc(F)cc3Br)cc12 | YES
O=C(Nc1ccc(Cl)cc1)Nc1nc2ccc([N+](=O)[O-])cc2s1 | YES
CCC(=O)Nc1ccc(-c2nc(-c3cccc(O)c3)c(-c3ccnc(Br)c3)[nH]2)cc1 | NO
C#C[C@]1(O)CC[C@H]2[C@@H]3CC=C4c5sc(Nc6cccc(Cl)n6)nc5CC[C@]4(C)[C@H]3CC[C@@]21C | YES
C#CCOc1ccc(/C=N/Nc2nc(-c3cc4cc(Br)cc(Br)c4oc3=O)cs2)cc1 | NO
COc1cc(/C=N/Nc2ccnc3cc(Cl)ccc23)cc(OC)c1O | YES
Cc1cc(O)c(=O)cc2c1C[C@H]1CC(C)(C)/C=C/C[C@]3(C)Oc4cc(=O)c(O)cc(C)c4C[C@H]3C[C@H](O)[C@@]1(C)O2 | YES
CCC(CC)n1c(=O)c(SC2=NC3C(NN2)N(CC)C(=O)N3CC)c(C(=O)O)c2ccccc21 (stereo unspecified) | NO
CC1(C)CC[C@]2(C(=O)O)CC[C@]3(C)C(=CCC4[C@@]5(C)C[C@@H](O)[C@@H]6OC(c7cccc([N+](=O)[O-])c7)OC[C@@]6(C)C5CC[C@]43C)C2C1 (stereo partly specified) | NO

###

- System: SNB-19 CNS
- experimental-protocol: NCI-60 one-dose screen, 48 h (100 = growth as untreated, 0 = no growth, -100 = all killed)
- condition-context: 10 µM unless noted
About 83,000 compounds went through this panel and 20% of them were active in at least one assay; those are over-represented in the sample as a whole.
Measured growth, listed per entry for reference.
result-type: growth (%)

C#CCOc1ccc(C(Nc2ccc(OC)cc2)c2nnnn2C2CCCCC2)cc1 (centres undefined) | 93.3
N#C/C(=C\c1ccc(N2CCCCC2)cc1)C(=O)Nc1sc2c(c1C#N)CCC2 | 99.2
O=C1Nc2ccc(Cl)cc2/C1=C/c1ccc(OCc2ccc(Br)cc2F)cc1 | 100
COc1cc(CNC(=O)Cc2ccccc2[N+](=O)[O-])ccc1OCC(=O)NO | 98.7
NC(=S)N/N=C(/C=C/c1cn(-c2ccccc2)nc1-c1ccc(Cl)cc1)c1cc2ccccc2oc1=O | 47.6
O=C1[C@H]2Cc3c([nH]c4ccccc34)[C@H](c3ccc(Cl)cc3)N2C(=O)CN1C1CCN(Cc2c(Cl)cccc2Cl)CC1 | 80.6
CS(=O)(=O)c1ccc(-c2nn(-c3ccccc3)cc2/C=N/NC(=O)c2ccncc2)cc1 | 96.5
C#CCOc1ccc(C(Nc2ccc(Cl)cc2)c2nnnn2C2CCCCC2)cc1 (centres undefined) | 89.5
O=C1c2c(c3c4cccnc4[nH]c3c3ccc4ccccc4c23)C(=O)N1CCN1CCOCC1 | 55.6

###

- Test system: DU-145 prostate
- experimental-protocol: NCI-60 one-dose screen, 48 h
- condition-context: 10 µM unless noted
The panel holds about 83,000 compounds, 20% with a hit somewhere; the sample as a whole holds those more often. Calls of active or inactive are those of the source. How the source made its calls: active means growth percent below 10; inactive means the rest.
Outcome codes: class 1 for active, class 0 for inactive

Nc1n[nH]c2cccc(C#Cc3cccc(NC(=O)c4cccc(OC(F)(F)F)c4)c3)c12 | class 0
CCC(C)[C@H]1OC(=O)[C@H](C(C)C)N(C)C(=O)[C@@H](C(C)C)OC(=O)[C@H](C(C)C)N(C)C(=O)[C@@H](C(C)CC)OC(=O)[C@H](C(C)C)N(C)C1=O (some centres not stated) | class 0
CCN1C(=O)N(CC)C2SC(N/N=C/c3cccs3)=NC21 (configuration not stated) | class 0
Cc1nn(-c2ccccc2)c2nc(CCl)[nH]c(=O)c12 | class 0
Clc1ccc(-c2csc(Nc3cccc(Nc4csc(-c5ccc(Cl)cc5)n4)c3)n2)cc1 | class 0
NC(=S)N/N=C(/C=C/c1cn(-c2ccccc2)nc1-c1ccc(Cl)cc1)c1cc2ccccc2oc1=O | class 0
Clc1ccc(-c2csc(N/N=C/c3nc4ccccc4n3C3CC3)n2)cc1 | class 0
COc1ccc(OC)c([C@H]2c3[nH]c4ccccc4c3C[C@H]3C(=O)N(CCCCCCC(=O)NO)CC(=O)N23)c1 | class 0
C=C(C)C(=O)O[C@H]1C[C@@]2(C)OC(=CC2=O)[C@H](C)[C@H](O)[C@H]2OC(=O)C(=C)[C@@H]21 | class 0
O=c1c2c(O)cccc2oc2c3c(cc(O)c12)O[C@H]1OC=C[C@@H]31 | class 0
CC(=O)NC(C)(C)C(=O)N[C@@H](C)C(=O)NC(C)(C)C(=O)N[C@@H](C)C(=O)NC(C)(C)C(=O)N[C@@H](C)C(=O)N[C@@H](CCC(N)=O)C(=O)NC(C)(C)C(=O)N[C@H](C(=O)NC(C)(C)C(=O)NCC(=O)N[C@@H](CC(C)C)C(=O)NC(C)(C)C(=O)N1CCC[C@H]1C(=O)N[C@H](C(=O)NC(C)(C)C(=O)NC(C)(C)C(=O)N[C@@H](CCC(N)=O)C(=O)N[C@@H](CCC(N)=O)C(=O)N[C@H](CO)CC1CCCCC1)C(C)C)C(C)C | class 0
Cc1cc(C(=O)Nc2ccc(SC#N)cc2)c(C)o1 | class 0
O=S(=O)(Nc1ccc(-c2nc(-c3cccc(O)c3)c(-c3ccnc(Br)c3)[nH]2)cc1)c1ccccc1 | class 0
Cc1cc2nc(C(Cl)Cl)nc(-c3ccco3)n2n1 | class 1
NS(=O)(=O)c1ccc(Nc2nc(N/N=C/c3ccc(F)cc3)nc(Nc3ccccc3)n2)cc1 | class 0
COc1ccc(CCN2C(=O)CSC2=S)cc1OC | class 0
CCC(CC)N1C(=O)/C(=c2\sc3n(c2=O)C2C(NN=3)N(CC)C(=O)N2CC)c2ccccc21 (configuration not stated) | class 1
CCCCCCNC(=O)Oc1ccc(/C(=C(/C)c2ccc(Cl)cc2)c2ccc(OCCN3CCCC3)cc2)cc1 | class 0
CC(C)C(=O)Nc1ccc(-c2nc(-c3cccc(O)c3)c(-c3ccnc(Br)c3)[nH]2)cc1 | class 0
Cn1cc(-c2nn3cc(-c4cccnc4)nc3s2)c2cc(F)ccc21 | class 0
C=C1C(=O)O[C@@H]2C[C@@H](C)[C@H](OC)CC(=O)[C@](C)(OC(C)=O)C[C@H](OC(=O)/C(C)=C\C)[C@@H]12 | class 0
CS(=O)(=O)c1ccc2c(c1)c1c(n2S(=O)(=O)c2ccc(Cl)cc2)CCCC1 | class 0
COc1ccc(-c2nnc(/N=C3/C(=O)Nc4ccc(Br)cc43)o2)cc1 | class 0
Cc1cc(NS(=O)(=O)c2ccc(-c3cnc(C4CC4)o3)cc2)ccc1I | class 0
Cc1nn(-c2ccccc2)cc1/C=N/Nc1nc(Nc2ccccc2)nc(Nc2ccc(S(N)(=O)=O)cc2)n1 | class 1
COCCC[C@H]1O[C@@](O)([C@H](C)[C@@H]2CC(OC)C(O)/C=C(C)/C=C(C)/C=C(\C)C(OC3O[C@@H](C)[C@H](O)C(O)[C@@H]3O)C(C)/C=C(C)/C=C(OC)/C=C(\C)C(=O)O2)C(OC)C(O)[C@]1(C)O[C@H]1C[C@@H](O)[C@H](O[C@H]2C[C@](C)(O)[C@H](O)C(C)O2)C(C)O1 (some centres not stated) | class 0
O=C(NCCCNc1cc(-c2cn(-c3ccccc3)nc2-c2cccc(O)c2)ccn1)Nc1cc(C(F)(F)F)cc(C(F)(F)F)c1 | class 0
COc1cc2c3c(n(CCCN4CCC[C@H]4C(N)=O)c(=O)c2cc1OC)-c1cc2c(cc1C3=O)OCO2 | class 0
Oc1ccccc1-c1nnc(SCc2ccc(O)c3ncccc23)n1-c1ccccc1 | class 0
COc1ccc([C@H]2[C@H](O)C(=O)N2c2cc(OC)c(OC)c(OC)c2)cc1O | class 0
N#C/C(=C\c1ccc(-c2ccc(F)cc2)o1)C(=O)Nc1ncc(Cc2ccc(Cl)cc2Cl)s1 | class 1
C=C1C(=O)O[C@@H]2/C=C(/C)C3=CC(=O)[C@@](C)(C[C@H](OC(=O)/C(C)=C\C)[C@@H]12)O3 | class 1
